# study target: HCV polymerase (Hepatitis C virus genotype 1b, UniProt P26663)
# Construct: a region encoding NS5B (591 amino acids; J Virol 1991 Mar, 65(3), 1105-13) was amplified by PCR; 6 His (N); made in house; host or cells: Escherichia coli
# Sequence (P26663 2420-3010): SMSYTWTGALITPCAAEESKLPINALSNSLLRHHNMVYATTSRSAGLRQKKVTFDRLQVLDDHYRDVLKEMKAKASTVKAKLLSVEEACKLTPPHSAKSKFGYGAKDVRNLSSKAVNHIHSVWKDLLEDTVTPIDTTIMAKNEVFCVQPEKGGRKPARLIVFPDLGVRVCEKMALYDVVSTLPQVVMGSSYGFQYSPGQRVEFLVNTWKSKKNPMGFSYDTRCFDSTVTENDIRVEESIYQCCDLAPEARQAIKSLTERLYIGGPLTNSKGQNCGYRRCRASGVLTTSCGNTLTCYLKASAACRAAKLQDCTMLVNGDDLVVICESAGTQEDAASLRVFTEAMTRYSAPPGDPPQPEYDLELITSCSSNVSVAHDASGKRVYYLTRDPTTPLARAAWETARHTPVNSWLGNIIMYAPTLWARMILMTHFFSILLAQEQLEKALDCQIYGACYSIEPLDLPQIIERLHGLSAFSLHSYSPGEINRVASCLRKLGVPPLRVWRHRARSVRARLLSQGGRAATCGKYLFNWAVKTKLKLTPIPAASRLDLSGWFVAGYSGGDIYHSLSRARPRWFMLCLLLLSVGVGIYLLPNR
# assay protocol: biochemical
# cond: read-out: HCV polymerase inhibitory activity IC50
pIC50: −log10 of the molar value. Counter-ions that a name gives are not always drawn.
A collection of compounds and their measured pIC50
recorded endpoint: pIC50

{"columns": ["compound", "recorded endpoint", "value"],
 "data": [
  ["O=C(O)c1ccc2c(c1)nc(-c1ccc(Oc3cccc(-c4cc(Cl)cc(Cl)c4)c3)cc1)n2C1CCCCC1", "pIC50", 7.39],
  ["CNC(=O)c1ccc(-c2ccc(Cl)cc2)c(COc2ccc(-c3nc4cc(C(=O)OC)ccc4n3C3CCCCC3)c(F)c2)c1", "pIC50", 7.01],
  ["O=C(O)COc1ccccc1Oc1ccc(-c2nc3cc(C(=O)O)ccc3n2C2CCCCC2)cc1", "pIC50", 6.96],
  ["CC(C)C(=O)Nc1ccc(-c2ccc(Cl)cc2)c(COc2ccc(-c3nc4cc(C(=O)O)ccc4n3C3CCCCC3)c(F)c2)c1 [Example 452, hydrochloride]", "pIC50", 7.55],
  ["CC(=O)N1CCC(COc2ccccc2Oc2ccc(-c3nc4cc(C(=O)O)ccc4n3C3CCCCC3)cc2)CC1", "pIC50", 6.54],
  ["COCCOCCOc1ccc(-c2ccc(Cl)cc2)c(COc2ccc(-c3nc4cc(C(=O)O)ccc4n3C3CCCCC3)cc2)c1 [Example 345, hydrochloride]", "pIC50", 7.92],
  ["O=C(O)c1ccc2c(c1)nc(-c1ccc(OCc3ccc(C(=O)NCc4ccncc4)cc3-c3ccc(Cl)cc3)cc1)n2C1CCCCC1", "pIC50", 7.80]
]}

###

# study target: HCV polymerase (Hepatitis C virus genotype 1b, UniProt P26663)
# Construct: a region encoding NS5B (591 amino acids; J Virol 1991 Mar, 65(3), 1105-13) was amplified by PCR; 6 His (N); made in house; host or cells: Escherichia coli
# assay protocol: biochemical
# cond: read-out: HCV polymerase inhibitory activity IC50
Structures can show the parent of a compound that is named as a salt.
Response field label takes 1 (yes) when IC50 is strictly below 80 nM and 0 (no) in all other cases.

{"columns": ["compound", "study target", "category label"],
 "data": [
  ["CCN(C)C(=O)c1ccc(-c2ccc(Cl)cc2)c(COc2ccc(-c3nc4cc(C(=O)O)ccc4n3C3CCCCC3)c(F)c2)c1 [Example 384, hydrochloride]", "HCV polymerase (Hepatitis C virus genotype 1b, UniProt P26663)", "1 (yes)"],
  ["O=C(O)c1ccc2c(c1)nc(-c1ccc(OC(c3ccccc3)c3ccccc3)cc1)n2C1CCCCC1", "HCV polymerase (Hepatitis C virus genotype 1b, UniProt P26663)", "0 (no)"],
  ["O=C(O)c1ccc2c(c1)nc(-c1ccc(OCc3cc(C(=O)N4CCC(O)CC4)ccc3-c3ccc(Cl)cc3)cc1F)n2C1CCCCC1", "HCV polymerase (Hepatitis C virus genotype 1b, UniProt P26663)", "1 (yes)"],
  ["CCCCNC(=O)c1ccc(-c2ccc(Cl)cc2)c(COc2ccc(-c3nc4cc(C(=O)O)ccc4n3C3CCCCC3)c(F)c2)c1 [Example 388, hydrochloride]", "HCV polymerase (Hepatitis C virus genotype 1b, UniProt P26663)", "1 (yes)"],
  ["COc1ccc(CCOc2ccc(-c3nc4cc(C(=O)O)ccc4n3C3CCCCC3)cc2)cc1", "HCV polymerase (Hepatitis C virus genotype 1b, UniProt P26663)", "0 (no)"],
  ["CC(=O)c1ccc(-c2ccc(Cl)cc2)c(COc2ccc(-c3nc4cc(C(=O)O)ccc4n3C3CCCCC3)cc2)c1 [Example 342, hydrochloride]", "HCV polymerase (Hepatitis C virus genotype 1b, UniProt P26663)", "1 (yes)"],
  ["O=C(O)c1ccc2c(c1)nc(-c1ccc(OCCc3cccc(OCc4ccccc4)c3)cc1)n2C1CCCCC1", "HCV polymerase (Hepatitis C virus genotype 1b, UniProt P26663)", "0 (no)"],
  ["O=C(O)c1ccc2c(c1)nc(-c1ccc(OCc3cc(-c4noc(=O)[nH]4)ccc3-c3ccc(Cl)cc3)cc1F)n2C1CCCCC1 [Example 374, hydrochloride]", "HCV polymerase (Hepatitis C virus genotype 1b, UniProt P26663)", "1 (yes)"],
  ["CCNC(=O)Nc1ccc(-c2ccc(Cl)cc2)c(COc2ccc(-c3nc4cc(C(=O)O)ccc4n3C3CCCCC3)c(F)c2)c1 [Example 394, hydrochloride]", "HCV polymerase (Hepatitis C virus genotype 1b, UniProt P26663)", "1 (yes)"],
  ["O=C(O)c1ccc2c(c1)nc(-c1cc(OCc3ccccc3)no1)n2C1CCCCC1", "HCV polymerase (Hepatitis C virus genotype 1b, UniProt P26663)", "0 (no)"],
  ["CC(C)NC(=O)c1ccc(-c2ccc(Cl)cc2)c(COc2ccc(-c3nc4cc(C(=O)O)ccc4n3C3CCCCC3)cc2)c1 [Example 330, hydrochloride]", "HCV polymerase (Hepatitis C virus genotype 1b, UniProt P26663)", "1 (yes)"],
  ["O=C(O)c1ccc2c(c1)nc(-c1ccc(Oc3ccccc3OCc3ccccc3)cc1)n2C1CCCCC1", "HCV polymerase (Hepatitis C virus genotype 1b, UniProt P26663)", "1 (yes)"],
  ["CC(=O)Nc1ccc(N2CCC[C@H]2COc2ccc(-c3nc4cc(C(=O)O)ccc4n3C3CCCCC3)cc2)cc1", "HCV polymerase (Hepatitis C virus genotype 1b, UniProt P26663)", "1 (yes)"]
]}

###

# study target: HCV polymerase (Hepatitis C virus genotype 1b)
# Construct: a region encoding NS5B (591 amino acids; J Virol 1991 Mar, 65(3), 1105-13) was amplified by PCR; 6 His (N); made in house; host or cells: Escherichia coli
# assay protocol: biochemical
# cond: read-out: HCV polymerase inhibitory activity IC50
pIC50: −log10 of the molar value. Counter-ions that a name gives are not always drawn.
recorded endpoint: pIC50

{"columns": ["compound", "recorded endpoint", "value"],
 "data": [
  ["O=C(O)c1ccc2c(c1)nc(-c1ccc(OCc3cc(C(=O)NCC4CCCCC4)ccc3-c3ccc(Cl)cc3)cc1)n2C1CCCCC1 [Example 317, hydrochloride]", "pIC50", 7.49],
  ["CS(=O)(=O)c1ccc(-c2ccc(Cl)cc2)c(COc2ccc(-c3nc4cc(C(=O)O)ccc4n3C3CCCCC3)cc2)c1 [Example 280]", "pIC50", 7.80],
  ["CCN(c1ccc(-c2ccc(Cl)cc2)c(COc2ccc(-c3nc4cc(C(=O)O)ccc4n3C3CCCCC3)c(F)c2)c1)S(C)(=O)=O [Example 461, hydrochloride]", "pIC50", 7.68],
  ["O=C(O)c1ccc2c(c1)nc(-c1ccc(OCc3cc(C(=O)NCCc4ccncc4)ccc3-c3ccc(Cl)cc3)cc1)n2C1CCCCC1 [Example 325, dihydrochloride]", "pIC50", 7.72],
  ["O=C(O)c1cccc(-c2ccc(Cl)cc2COc2ccc(-c3nc4cc(C(=O)O)ccc4n3C3CCCCC3)cc2)c1 [Example 296]", "pIC50", 7.47],
  ["CN(C)C(=O)COCc1nc(-c2ccc(F)cc2)c(COc2ccc(-c3nc4cc(C(=O)O)ccc4n3C3CCCCC3)cc2)s1 [Example 426, hydrochloride]", "pIC50", 7.28],
  ["Nc1nc(-c2ccc(-c3ccc(Cl)cc3)c(COc3ccc(-c4nc5cc(C(=O)O)ccc5n4C4CCCCC4)cc3)c2)cs1 [Example 358, dihydrochloride]", "pIC50", 7.77],
  ["COc1ccc(-c2ccc(C(=O)O)cc2)c(COc2ccc(-c3nc4cc(C(=O)O)ccc4n3C3CCCCC3)cc2)c1 [Example 306]", "pIC50", 7.89],
  ["O=C(O)c1ccc2c(c1)nc(-c1ccc(Oc3cccc(-c4ccccc4)c3)cc1)n2C1CCCCC1 [Example 154]", "pIC50", 7.12],
  ["O=C(O)c1ccc2c(c1)nc(-c1ccc(OCc3cc(N4CCCS4(=O)=O)c(F)cc3-c3ccc(Cl)cc3)cc1F)n2C1CCCCC1 [Example 449, hydrochloride]", "pIC50", 7.60],
  ["CN(C)C(=O)c1ccc(N2CCC[C@H]2COc2ccc(-c3nc4cc(C(=O)O)ccc4n3C3CCCCC3)cc2)cc1 [Example 228]", "pIC50", 6.74],
  ["O=C(O)c1ccc2c(c1)nc(-c1ccc(Oc3cccc(-c4ccc(Cl)cc4)c3)cc1)n2C1CCCCC1 [Example 215]", "pIC50", 7.11],
  ["O=C(O)c1ccc2c(c1)nc(-c1ccc(OCC(=O)c3ccccc3)cc1)n2C1CCCCC1 [Example 91]", "pIC50", 6.28]
]}
